Target: T1, SEAP
T1 construct: negative control antigen; also called SEAP-His protein
Test: ELISA
Method: For the anti-human EphA4 monoclonal antibodies produced in Example 1, evaluation of binding activity to various EphA4 was performed according to the following steps. Mouse anti-6-His antibodies (R&D) were coated on the wells of a 96-well plate (Thermo […]). […] Equal amounts of quenching solution (2 N H₂SO₄, FUJIFILM Wako) were added to the wells, and absorbance at 450 nm and 650 nm were read with a microplate reader (Thermo […]).
Lab note: anything with absorbance at or over 0.05 counts as yes (1); the rest go in no (0).

Worked set:
Inquiry: Textbook exercise: given the entry KPEP11_05 (antibody, V domains shown, Rabbit IgG; also called anti-human EphA4 rabbit monoclonal antibody KPEP11_05) VH: QSLEESGGRLVTPGGSLTLTCTVSGIDLSSYAMSWVRQAPEKGLEWIGFINNYGTYYASWAKGRFTISKTSTTVDLKVTSLTTEDTATYFCVRGGRSPNYDIVSGDIWGPGTLVTVSS VL: YVMMTQTPSSVSEPVGGTVTIKCQASQNIYNSLAWYQQKPGQRPKLLIADASELASGVPQRFSGSGSGTQFTLTISDLECADAATYYCQSSSAGDSYVGGFGGGTEVVVKG , state whether its absorbance is greater than or equal to 0.05.
Reply text: no (0)

Inquiry: Textbook exercise: given the entry KPEP11_01 (antibody, V domains shown, also called anti-human EphA4 rabbit monoclonal antibody KPEP11_01) VH: QSVEESGGRLVTPGTPLTLTCTVSGFSLSSYHMSWVRQAPGKGLEWIGIIYRSGNTYSANWAKGRFTISKTSTTVDLKITSPTTEDTATYFCARESSTFYGMDLWGPGTLVTVSS VL: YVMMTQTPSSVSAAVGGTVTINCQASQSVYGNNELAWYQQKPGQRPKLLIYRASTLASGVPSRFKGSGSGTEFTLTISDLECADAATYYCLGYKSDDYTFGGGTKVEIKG , state whether its absorbance is greater than or equal to 0.05.
Reply text: yes (1)

Inquiry: Textbook exercise: given the entry KPEP11_18 (antibody, V domains shown, Rabbit IgG/kappa; Used coated or HRP-labeled in the sandwich ELISAs; also called anti-human EphA4 rabbit monoclonal antibody KPEP11_18; HRP-labeled KPEP11_18) VH: QSLEESGGRLVTPGTPLTLTCTISGFSLSSFYINWVRQAPGRGLEWIGIIYPDIDATDYASWVKGRFTISKTSTTVDLKITSPTTEDTATYFCARSDVDYYTTRLDLWGQGTLVTVSS VL: DPMMTQTASPVSAAVGGTVSISCQSNKSVYSNWLSWFQQKPGQPPKLLIYGASTLASGVPSRFKGSGSGTQFTLTVSDVQCDDAATYFCLGGYRDNSDNAFGGGTEVVVKG , state whether its absorbance is greater than or equal to 0.05.
Reply text: yes (1)

Others:
Inquiry: Textbook exercise: given the entry KPEP11_13 (antibody, V domains shown, Rabbit IgG; also called anti-human EphA4 rabbit monoclonal antibody KPEP11_13) VH: QSLEESGGRLVTPGTPLTLTCTVSGFSLSSYHMSWVRQAPGKGLEWIGIIYRSGNTYYANWAKGRFTISKTSTTVDLKITSPTTEDTATYFCARESSTFYGMDLWGPGTLVTVSS VL: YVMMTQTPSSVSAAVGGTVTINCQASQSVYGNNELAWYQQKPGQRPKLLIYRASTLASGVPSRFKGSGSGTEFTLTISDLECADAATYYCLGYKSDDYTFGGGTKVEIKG , state whether its absorbance is greater than or equal to 0.05.
Reply text: yes (1)

Inquiry: Textbook exercise: given the entry KPEP11_12 (antibody, V domains shown, Rabbit IgG; also called anti-human EphA4 rabbit monoclonal antibody KPEP11_12) VH: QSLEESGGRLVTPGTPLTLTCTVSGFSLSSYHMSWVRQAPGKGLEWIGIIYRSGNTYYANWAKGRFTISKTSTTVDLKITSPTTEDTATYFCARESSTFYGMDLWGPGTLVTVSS VL: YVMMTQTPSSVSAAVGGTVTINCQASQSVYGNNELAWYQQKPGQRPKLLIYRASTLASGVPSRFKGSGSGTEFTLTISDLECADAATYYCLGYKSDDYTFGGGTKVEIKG , state whether its absorbance is greater than or equal to 0.05.
Reply text: yes (1)

Inquiry: Textbook exercise: given the entry KPEP11_09 (antibody, V domains shown, Rabbit IgG; also called anti-human EphA4 rabbit monoclonal antibody KPEP11_09) VH: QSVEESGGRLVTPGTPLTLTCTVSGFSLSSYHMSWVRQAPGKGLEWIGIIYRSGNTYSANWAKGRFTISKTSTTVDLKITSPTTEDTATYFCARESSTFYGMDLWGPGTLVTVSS VL: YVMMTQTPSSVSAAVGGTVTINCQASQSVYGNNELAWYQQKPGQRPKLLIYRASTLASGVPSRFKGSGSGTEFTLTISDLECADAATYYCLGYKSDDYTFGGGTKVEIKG , state whether its absorbance is greater than or equal to 0.05.
Reply text: yes (1)
